Source of measurements: ChEMBL document CHEMBL1143749

Measured inhibition in vivo at 100 mg/kg accompanies every entry in the list below.
- System: Mus musculus
- Assay procedure: Inhibition of carrageenan-induced hind paw oedema in Swiss Albino mouse at 100 mg/kg, po after 180 mins relative to control
- Type: functional
- Measurement conditions: Mus musculus, Swiss Albino, po, 3 h
I'd appreciate it if you wrote the number followed by its unit.

Observe how each entry below is paired with its result.
[
  {
    "Compound": "CNC(=S)N1N=C(c2ccc(OC)cc2)CC1c1ccc[nH]1 (stereo unspecified)",
    "inhibition in vivo at 100 mg/kg": "14.7%"
  },
  {
    "Compound": "CCNC(=S)N1N=C(c2ccc(C)cc2)CC1c1ccc[nH]1 (stereo unspecified)",
    "inhibition in vivo at 100 mg/kg": "10.5%"
  },
  {
    "Compound": "CCNC(=S)N1N=C(c2ccc(Cl)cc2)CC1c1ccc[nH]1 (stereo unspecified)",
    "inhibition in vivo at 100 mg/kg": "21.3%"
  },
  {
    "Compound": "CNC(=S)N1N=C(c2ccc(Cl)cc2)CC1c1ccc[nH]1 (stereo unspecified)",
    "inhibition in vivo at 100 mg/kg": "6.6%"
  },
  {
    "Compound": "COc1ccc(C2=NN(C(=S)Nc3ccccc3)C(c3ccc[nH]3)C2)cc1 (stereo unspecified)",
    "inhibition in vivo at 100 mg/kg": "22.6%"
  }
]

### Prompt Request the reported inhibition in vivo at 100 mg/kg associated with CCCNC(=S)N1N=C(c2ccc(Cl)cc2)CC1c1ccc[nH]1 (stereo unspecified)
### Response 25.2%

### Prompt Quick one: CNC(=S)N1N=C(c2ccc(C)cc2)CC1c1ccc[nH]1 (stereo unspecified)
### Response 11.2%

### Prompt Quick one: CCCNC(=S)N1N=C(c2ccc(OC)cc2)CC1c1ccc[nH]1 (stereo unspecified)
### Response 23.6%

### Prompt Quick one: CCCNC(=S)N1N=C(c2ccc(C)cc2)CC1c1ccc[nH]1 (stereo unspecified)
### Response 20.9%

### Prompt Quick one: CCNC(=S)N1N=C(c2ccc(OC)cc2)CC1c1ccc[nH]1 (stereo unspecified)
### Response 22.7%

### Prompt Quick one: COc1ccc2c(c1)c(CC(=O)O)c(C)n2C(=O)c1ccc(Cl)cc1 [INDOMETHACIN]
### Response 37.1%

====

- Target: Amine oxidase [flavin-containing] B (Rattus norvegicus)
- Sequence (P19643 whole entry): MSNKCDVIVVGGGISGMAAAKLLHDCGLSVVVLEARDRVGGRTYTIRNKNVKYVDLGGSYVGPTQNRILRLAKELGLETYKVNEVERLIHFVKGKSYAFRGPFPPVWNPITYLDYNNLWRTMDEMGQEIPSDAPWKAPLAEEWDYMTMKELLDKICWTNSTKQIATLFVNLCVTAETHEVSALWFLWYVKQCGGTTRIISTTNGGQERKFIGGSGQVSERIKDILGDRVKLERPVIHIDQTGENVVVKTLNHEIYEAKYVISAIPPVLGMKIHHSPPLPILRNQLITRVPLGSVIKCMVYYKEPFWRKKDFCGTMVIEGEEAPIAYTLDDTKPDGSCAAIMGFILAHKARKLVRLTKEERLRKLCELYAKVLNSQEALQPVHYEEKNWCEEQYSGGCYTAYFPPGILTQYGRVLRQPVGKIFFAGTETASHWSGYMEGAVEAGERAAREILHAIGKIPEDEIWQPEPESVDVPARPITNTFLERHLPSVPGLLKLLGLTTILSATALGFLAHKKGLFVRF
// NB: equality with 400 µM counts as FALSE; only IC50 strictly below is TRUE

### Prompt Find out if reported IC50 for CCNC(=S)N1N=C(c2ccc(C)cc2)CC1c1ccc[nH]1 (configuration not stated) is less than 400 µM
### Response TRUE

====

- Target: Amine oxidase [flavin-containing] A (Rattus norvegicus)
- Sequence (P21396 whole entry): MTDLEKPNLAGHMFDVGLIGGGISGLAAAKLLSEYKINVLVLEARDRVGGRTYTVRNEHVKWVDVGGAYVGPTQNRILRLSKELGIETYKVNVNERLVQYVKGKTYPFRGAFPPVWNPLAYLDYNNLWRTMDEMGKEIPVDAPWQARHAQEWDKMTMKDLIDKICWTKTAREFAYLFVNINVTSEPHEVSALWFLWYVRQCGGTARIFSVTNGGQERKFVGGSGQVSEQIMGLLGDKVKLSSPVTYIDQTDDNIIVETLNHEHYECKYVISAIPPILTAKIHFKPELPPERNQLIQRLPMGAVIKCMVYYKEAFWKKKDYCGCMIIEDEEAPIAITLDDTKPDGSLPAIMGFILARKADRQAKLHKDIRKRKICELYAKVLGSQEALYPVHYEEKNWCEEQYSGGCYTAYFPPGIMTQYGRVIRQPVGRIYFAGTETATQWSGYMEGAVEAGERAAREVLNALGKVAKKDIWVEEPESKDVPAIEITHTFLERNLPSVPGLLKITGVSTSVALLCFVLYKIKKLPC
- Assay procedure: Inhibition of rat liver MAOA after 60 mins pre-incubation
Reported endpoint: IC50 (µM)
I only need the number, in µM, no unit after it.

[
  {
    "Compound": "CCNC(=S)N1N=C(c2ccc(C)cc2)CC1c1ccc[nH]1 (stereo unspecified)",
    "IC50 / µM": 329
  }
]

### Prompt Request the reported IC50 associated with CNC(=S)N1N=C(c2ccc(C)cc2)CC1c1ccc[nH]1 (stereo unspecified)
### Response 295

### Prompt Quick one: CCNC(=S)N1N=C(c2ccc(Cl)cc2)CC1c1ccc[nH]1 (stereo unspecified)
### Response 20.2

### Prompt Quick one: CNC(=S)N1N=C(c2ccc(OC)cc2)CC1c1ccc[nH]1 (stereo unspecified)
### Response 430

====

Measured inhibition in vivo at 100 mg/kg accompanies every entry in the list below.
- Test system: Mus musculus
- Assay procedure: Inhibition of p-Benzoquinone-induced writhings in Swiss Albino mouse at 100 mg/kg, po relative to control
- Format: functional
- Measurement conditions: Mus musculus, Swiss Albino, po
I only need the number, in %, no unit after it.

[
  {
    "Molecule": "CCCNC(=S)N1N=C(c2ccc(OC)cc2)CC1c1ccc[nH]1 (stereo unspecified)",
    "Target": "Mus musculus",
    "inhibition in vivo at 100 mg/kg, %": 60
  },
  {
    "Molecule": "CCNC(=S)N1N=C(c2ccc(Cl)cc2)CC1c1ccc[nH]1 (stereo unspecified)",
    "Target": "Mus musculus",
    "inhibition in vivo at 100 mg/kg, %": 55.9
  },
  {
    "Molecule": "CNC(=S)N1N=C(c2ccc(OC)cc2)CC1c1ccc[nH]1 (stereo unspecified)",
    "Target": "Mus musculus",
    "inhibition in vivo at 100 mg/kg, %": 19.7
  }
]

### Prompt Request the reported inhibition in vivo at 100 mg/kg associated with `CC(=O)Oc1ccccc1C(=O)O`
### Response 54.3

### Prompt Quick one: CNC(=S)N1N=C(c2ccc(C)cc2)CC1c1ccc[nH]1 (stereo unspecified)
### Response 18.6

====

- Test system: Mus musculus
- Assay procedure: Inhibition of carrageenan-induced hind paw oedema in Swiss Albino mouse at 100 mg/kg, po after 90 mins relative to control
- Format: functional
- Measurement conditions: Mus musculus, Swiss Albino, po, 1.5 h
Reported endpoint: inhibition in vivo at 100 mg/kg (%)
I only need the number, in %, no unit after it.

[
  {
    "Compound": "COc1ccc2c(c1)c(CC(=O)O)c(C)n2C(=O)c1ccc(Cl)cc1 [INDOMETHACIN]",
    "Scale unit": "%",
    "inhibition in vivo at 100 mg/kg": 32.3
  }
]

### Prompt Request the reported inhibition in vivo at 100 mg/kg associated with CCNC(=S)N1N=C(c2ccc(Cl)cc2)CC1c1ccc[nH]1 (stereo not given)
### Response 16.1

### Prompt Quick one: CNC(=S)N1N=C(c2ccc(OC)cc2)CC1c1ccc[nH]1 (stereo not given)
### Response 14.2

### Prompt Quick one: CCCNC(=S)N1N=C(c2ccc(Cl)cc2)CC1c1ccc[nH]1 (stereo not given)
### Response 19.8

### Prompt Quick one: CCCNC(=S)N1N=C(c2ccc(C)cc2)CC1c1ccc[nH]1 (stereo not given)
### Response 14.6

### Prompt Quick one: CCNC(=S)N1N=C(c2ccc(C)cc2)CC1c1ccc[nH]1 (stereo not given)
### Response 4.9

### Prompt Quick one: CCCNC(=S)N1N=C(c2ccc(OC)cc2)CC1c1ccc[nH]1 (stereo not given)
### Response 20.3

### Prompt Quick one: CCNC(=S)N1N=C(c2ccc(OC)cc2)CC1c1ccc[nH]1 (stereo not given)
### Response 23.2

### Prompt Quick one: COc1ccc(C2=NN(C(=S)Nc3ccccc3)C(c3ccc[nH]3)C2)cc1 (stereo not given)
### Response 20.7

### Prompt Quick one: CNC(=S)N1N=C(c2ccc(C)cc2)CC1c1ccc[nH]1 (stereo not given)
### Response 13.2

====

- Target: Amine oxidase [flavin-containing] B (Rattus norvegicus)
- Sequence (P19643 whole entry): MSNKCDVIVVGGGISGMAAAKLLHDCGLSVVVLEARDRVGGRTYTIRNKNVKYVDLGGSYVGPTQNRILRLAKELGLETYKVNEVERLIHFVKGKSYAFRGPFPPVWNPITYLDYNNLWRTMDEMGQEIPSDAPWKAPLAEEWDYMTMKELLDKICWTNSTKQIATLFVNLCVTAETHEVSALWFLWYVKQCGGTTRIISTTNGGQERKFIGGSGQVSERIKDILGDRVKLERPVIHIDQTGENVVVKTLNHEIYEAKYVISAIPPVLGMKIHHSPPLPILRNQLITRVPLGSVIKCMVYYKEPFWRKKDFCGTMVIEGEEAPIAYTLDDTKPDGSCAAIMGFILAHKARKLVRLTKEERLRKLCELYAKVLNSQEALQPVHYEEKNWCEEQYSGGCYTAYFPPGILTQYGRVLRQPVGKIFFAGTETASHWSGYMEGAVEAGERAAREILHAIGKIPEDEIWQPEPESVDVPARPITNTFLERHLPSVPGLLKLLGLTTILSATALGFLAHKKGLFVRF
Reported endpoint: pKi
Give only the number. pKi is defined as minus log10 of concentration in molar units.

Observe how each entry below is paired with its result.
[
  {
    "Molecule": "CNC(=S)N1N=C(c2ccc(OC)cc2)CC1c1ccc[nH]1 (centres undefined)",
    "pKi": 4.90
  },
  {
    "Molecule": "CCCNC(=S)N1N=C(c2ccc(OC)cc2)CC1c1ccc[nH]1 (centres undefined)",
    "pKi": 4.47
  },
  {
    "Molecule": "COc1ccc(C2=NN(C(=S)Nc3ccccc3)C(c3ccc[nH]3)C2)cc1 (centres undefined)",
    "pKi": 4.43
  }
]

# input for lookup
### Prompt Request the reported pKi associated with CCNC(=S)N1N=C(c2ccc(OC)cc2)CC1c1ccc[nH]1 (centres undefined)
### Response 4.62
